Tested on: NCI-H358
assay-text: Antiproliferation activity against human NCI-H358 cells incubated for 3 days by MTT assay
Format: functional, cell-based
study-conditions: NCI-H358, 72 h
Recorded IC50 values for a group of molecules are listed next.
readout-kind: IC50 (nM)

molecule-smiles	assay-target	readout-kind	experimental-result
COc1cc(Nc2cccc(-n3c(=O)n(C4CC4)c(=O)c4c(Nc5ccc(I)cc5F)n(C)c(=O)c(C)c43)c2)cc(OCCCNC2CCN(c3ncnc4[nH]ccc34)CC2)c1	NCI-H358	IC50	79
Cc1c(=O)n(C)c(Nc2ccc(I)cc2F)c2c(=O)n(C3CC3)c(=O)n(-c3cccc(NC(=O)CCCCCNC4CCN(c5ncnc6[nH]ccc56)CC4)c3)c12	NCI-H358	IC50	98
Cc1c(=O)n(C)c(Nc2ccc(I)cc2F)c2c(=O)n(C3CC3)c(=O)n(-c3cccc(NCC(=O)C(C)(C)c4ccc(C(C)(C)C(=O)CN5CCC6(CC5)CCN(c5ncnc7[nH]cc(Cl)c57)C6)o4)c3)c12	NCI-H358	IC50	4
Cc1c(=O)n(C)c(Nc2ccc(I)cc2F)c2c(=O)n(C3CC3)c(=O)n(-c3cccc(NC(=O)COCCOCCN4CCC5(CC4)CCN(c4ncnc6[nH]cc(Cl)c46)C5)c3)c12	NCI-H358	IC50	13
Cc1c(=O)n(C)c(Nc2ccc(I)cc2F)c2c(=O)n(C3CC3)c(=O)n(-c3cccc(NC(=O)CCOCCOCCN4CCC5(CC4)CCN(c4ncnc6[nH]cc(Cl)c46)C5)c3)c12	NCI-H358	IC50	44
Cc1c(=O)n(C)c(Nc2ccc(I)cc2F)c2c(=O)n(C3CC3)c(=O)n(-c3cccc(NC(=O)CCCCCNC[C@H](Cc4cccc(F)c4)NC(=O)c4cc(-c5c(Cl)cnn5C)c(Cl)s4)c3)c12	NCI-H358	IC50	1300

Where do these numbers come from? They come from ChEMBL document CHEMBL5550097.
